- Tested on: SK-MEL-2 melanoma
- ASSAY_DETAILS: NCI-60 one-dose screen, 48 h (100 = growth as untreated, 0 = no growth, -100 = all killed)
- EXPERIMENTAL_PARAMETERS: 10 µM
Compounds without any hit were thinned out: in the full panel of roughly 83,000, 20% have a hit.
Classification field: satisfied = growth at or over 90%; not satisfied = growth under 90%.

{"SMILES_REPRESENTATION": "O=C/C=C/c1ccc([N+](=O)[O-])cc1Cl", "CLASSIFICATION": "satisfied"}

(Q) Decide: growth of COc1ccc(-c2nnc(SCC(=O)c3ccccc3)o2)cc1 >= 90%?
(A) satisfied

(Q) Is it the case that O=C(NCCc1nccs1)c1cnc2c(S)cccc2c1 has growth reaching or exceeding 90%?
(A) not satisfied

(Q) Hi team, for O=C(Nc1ccc(Oc2ccc(Nc3nc4ccccc4s3)cc2)cc1)Nc1ccc(Cl)c(Cl)c1 , is the recorded growth at or above 90%?
(A) not satisfied
